Source: patent US20240335541A1

test: LNP hydrodynamic diameter and PDI by DLS (Example 16 LNPs, Stunner); assay type: physicochemical; details: Example 16 LNPs: 47.5% Ionizable Lipid: 40% cholesterol: 2.5% PEG-2000 DMG: 10% DPSC, N/P 4-8
Recorded Mean PDI for the following compounds
Lab note: write the figure by itself, no unit.

Solved entries:
compound	measured-endpoint	measured
CC/C=C\CCCCOC(CCC(=O)OCCCCCCN(CCO)CCCN(CCCCCCCC(=O)OCCCCCCCCC)CCCCCCCC(=O)OCCCCCCCCC)OCCCC/C=C\CC	Mean PDI	0.10
CC/C=C\CCCCOC(CCC(=O)OCCCCCCN(CCCO)CCN(CCCCCCOC(=O)C(CCCC)CCCCCC)CCCCCCOC(=O)C(CCCC)CCCCCC)OCCCC/C=C\CC (centres unmarked)	Mean PDI	0.17
CC/C=C\CCCCOC(CCC(=O)OCCCCCCN(CCO)CCCN(CCCCCCOC(=O)C(CCCC)CCCCCC)CCCCCCOC(=O)C(CCCC)CCCCCC)OCCCC/C=C\CC (centres unmarked)	Mean PDI	0.08
CC/C=C\CCCCOC(CCC(=O)OCCCCCCCN(CCCCCCCOC(=O)CCC(OCCCC/C=C\CC)OCCCC/C=C\CC)CCN(CCO)CCCCCCCC(=O)OCCCCCCCCC)OCCCC/C=C\CC	Mean PDI	0.10
CC/C=C\CCCCOC(CCC(=O)OCCCCCCN(CCCO)CCN(CCCCCCOC(=O)CCC(OCCCC/C=C\CC)OCCCC/C=C\CC)CCCCCCOC(=O)CCC(OCCCC/C=C\CC)OCCCC/C=C\CC)OCCCC/C=C\CC	Mean PDI	0.11
CC/C=C\CCCCOC(CCC(=O)OCCCCCCCN(CCCO)CCN(CCCCCCCCCOC(=O)C(CCCC)CCCCCC)CCCCCCCCCOC(=O)C(CCCC)CCCCCC)OCCCC/C=C\CC (centres unmarked)	Mean PDI	0.11
CC/C=C\CCCCOC(CCC(=O)OCCCCCCCN(CCCCCCCOC(=O)CCC(OCCCC/C=C\CC)OCCCC/C=C\CC)CCN(CCO)CCCCCCCCCOC(=O)C(CCCC)CCCCCC)OCCCC/C=C\CC (centres unmarked)	Mean PDI	0.12
CC/C=C\CCCCOC(CCC(=O)OCCCCCCN(CCO)CCCN(CCCCCC(=O)OCCCCCCCCC)CCCCCC(=O)OCCCCCCCCC)OCCCC/C=C\CC	Mean PDI	0.12
CC/C=C\CCCCOC(CCC(=O)OCCCCCCN(CCCCCCOC(=O)CCC(OCCCC/C=C\CC)OCCCC/C=C\CC)CCCN(CCO)CCCCCCCC(=O)OCCCCCCCCC)OCCCC/C=C\CC	Mean PDI	0.13
CC/C=C\CCCCOC(CCC(=O)OCCCCCCCN(CCO)CCCN(CCCCCCOC(=O)C(CCCC)CCCCCC)CCCCCCOC(=O)C(CCCC)CCCCCC)OCCCC/C=C\CC (centres unmarked)	Mean PDI	0.11

Continue with the compound presented below.
Specify measured Mean PDI for CC/C=C\CCCCOC(CCC(=O)OCCCCCCN(CCCO)CCN(CCCCCCCCCOC(=O)C(CCCC)CCCCCC)CCCCCCCCCOC(=O)C(CCCC)CCCCCC)OCCCC/C=C\CC (centres unmarked) .
0.12

* * *

Recorded Mean Encapsulation Efficiency for the following compounds
assay: LNP encapsulation efficiency, unlysed vs lysed LNPs, Qubit kit (Example 1 LNPs); format: physicochemical; conditions: LNPs prepared according to Example 1; total lipid to NA mass ratio 11.7
Please respond with the number in % and leave the unit unwritten.

Solved entries:
compound	Mean Encapsulation Efficiency / %
CC/C=C\CCCCOC(CCC(=O)OCCCCCCN(CCCCCCOC(=O)CCC(OCCCC/C=C\CC)OCCCC/C=C\CC)CCN(CCO)CCCCCCCC(=O)OCCCCCCCCC)OCCCC/C=C\CC	94.7
CC/C=C\CCCCOC(CCC(=O)OCCCCCCN(CCO)CCN(CCCCCCCCCOC(=O)C(CCCC)CCCCCC)CCCCCCCCCOC(=O)C(CCCC)CCCCCC)OCCCC/C=C\CC (stereo not drawn)	95.6
CC/C=C\CCCCOC(CCC(=O)OCCCCCCCN(CCCCCCCOC(=O)CCC(OCCCC/C=C\CC)OCCCC/C=C\CC)CCCN(CCO)CCCCCCCC(=O)OCCCCCCCCC)OCCCC/C=C\CC	97.5
CC/C=C\CCCCOC(CCC(=O)OCCCCCCCN(CCO)CCCN(CCCCCCCOC(=O)CCC(OCCCC/C=C\CC)OCCCC/C=C\CC)CCCCCCCOC(=O)CCC(OCCCC/C=C\CC)OCCCC/C=C\CC)OCCCC/C=C\CC	96.8
CC/C=C\CCCCOC(CCC(=O)OCCCCCCCN(CCCCCCCOC(=O)CCC(OCCCC/C=C\CC)OCCCC/C=C\CC)CCN(CCCO)CCCCCCCC(=O)OCCCCCCCCC)OCCCC/C=C\CC	92.9

Continue with the compound presented below.
Specify measured Mean Encapsulation Efficiency for CC/C=C\CCCCOC(CCC(=O)OCCCCCCCN(CCCCCCCOC(=O)CCC(OCCCC/C=C\CC)OCCCC/C=C\CC)CCN(CCO)CCCCCCCC(=O)OCCCCCCCCC)OCCCC/C=C\CC .
95.9

* * *

assay: LNP hydrodynamic diameter and polydispersity by DLS (Example 1 LNPs); format: physicochemical; conditions: LNPs prepared according to Example 1, total lipid to NA mass ratio 11.7
The threshold is 100 nm. Values of Mean Diameter beneath it are tagged class 1; values meeting or exceeding it are tagged class 0.

Before answering, review these 5 worked examples.
compound	answer-label
CC/C=C\CCCCOC(CCC(=O)OCCCCCCN(CCO)CCN(CCCCCCCCCOC(=O)C(CCCC)CCCCCC)CCCCCCCCCOC(=O)C(CCCC)CCCCCC)OCCCC/C=C\CC (stereo not drawn) [Example 7-15]	class 1
CC/C=C\CCCCOC(CCC(=O)OCCCCCCN(CCCCCCOC(=O)CCC(OCCCC/C=C\CC)OCCCC/C=C\CC)CCN(CCO)CCCCCCCC(=O)OCCCCCCCCC)OCCCC/C=C\CC [Example 7-12]	class 1
CC/C=C\CCCCOC(CCC(=O)OCCCCCCCN(CCCCCCCOC(=O)CCC(OCCCC/C=C\CC)OCCCC/C=C\CC)CCCN(CCO)CCCCCCCC(=O)OCCCCCCCCC)OCCCC/C=C\CC [Example 7-4]	class 0
CC/C=C\CCCCOC(CCC(=O)OCCCCCCCN(CCO)CCCN(CCCCCCCOC(=O)CCC(OCCCC/C=C\CC)OCCCC/C=C\CC)CCCCCCCOC(=O)CCC(OCCCC/C=C\CC)OCCCC/C=C\CC)OCCCC/C=C\CC [Example 7-2]	class 1
CC/C=C\CCCCOC(CCC(=O)OCCCCCCCN(CCO)CCN(CCCCCCCOC(=O)CCC(OCCCC/C=C\CC)OCCCC/C=C\CC)CCCCCCCOC(=O)CCC(OCCCC/C=C\CC)OCCCC/C=C\CC)OCCCC/C=C\CC [Example 7-11]	class 1

# check: Mean Diameter < 100 nm for CC/C=C\CCCCOC(CCC(=O)OCCCCCCN(CCO)CCCN(CCCCCCCCCOC(=O)C(CCCC)CCCCCC)CCCCCCCCCOC(=O)C(CCCC)CCCCCC)OCCCC/C=C\CC (stereo not drawn) [Example 7-8]
class 0

# check: Mean Diameter < 100 nm for CC/C=C\CCCCOC(CCC(=O)OCCCCCCCN(CCCO)CCN(CCCCCCCOC(=O)CCC(OCCCC/C=C\CC)OCCCC/C=C\CC)CCCCCCCOC(=O)CCC(OCCCC/C=C\CC)OCCCC/C=C\CC)OCCCC/C=C\CC [Example 7-17]
class 1

# check: Mean Diameter < 100 nm for CC/C=C\CCCCOC(CCC(=O)OCCCCCCCN(CCCCCCCOC(=O)CCC(OCCCC/C=C\CC)OCCCC/C=C\CC)CCN(CCO)CCCCCCCC(=O)OCCCCCCCCC)OCCCC/C=C\CC [Example 7-13]
class 1

* * *

Recorded Mean Encapsulation Efficiency for the following compounds
Assay: LNP encapsulation efficiency, unlysed vs lysed LNPs, Qubit kit (Example 1 LNPs)
Type: physicochemical
Settings: LNPs prepared according to Example 1; total lipid to NA mass ratio 11.7
Description: Concentration of NA was determined by Qubit microRNA kit (for siRNA) or HS RNA kit (for mRNA) per manufacturer's instructions. Encapsulation efficiency was determined by measuring nucleic acid concentration in unlysed and lysed LNPs. Encapsulation efficiency was determined by measuring unlysed and lysed LNPs.
Please respond with the number in % and leave the unit unwritten.

Solved entries:
compound	Mean Encapsulation Efficiency, %
CC/C=C\CCCCOC(CCC(=O)OCCCCCCN(CCO)CCCN(CCCCCCCCCOC(=O)C(CCCC)CCCCCC)CCCCCCCCCOC(=O)C(CCCC)CCCCCC)OCCCC/C=C\CC (stereo not drawn)	85.4
CC/C=C\CCCCOC(CCC(=O)OCCCCCCCN(CCCO)CCN(CCCCCCCOC(=O)CCC(OCCCC/C=C\CC)OCCCC/C=C\CC)CCCCCCCOC(=O)CCC(OCCCC/C=C\CC)OCCCC/C=C\CC)OCCCC/C=C\CC	97.2

Continue with the compound presented below.
Specify measured Mean Encapsulation Efficiency for CC/C=C\CCCCOC(CCC(=O)OCCCCCCCN(CCO)CCN(CCCCCCCOC(=O)CCC(OCCCC/C=C\CC)OCCCC/C=C\CC)CCCCCCCOC(=O)CCC(OCCCC/C=C\CC)OCCCC/C=C\CC)OCCCC/C=C\CC .
96.4
